# target: UniProt:Q02763
# Sequence (Q02763 23-1124, species assumed): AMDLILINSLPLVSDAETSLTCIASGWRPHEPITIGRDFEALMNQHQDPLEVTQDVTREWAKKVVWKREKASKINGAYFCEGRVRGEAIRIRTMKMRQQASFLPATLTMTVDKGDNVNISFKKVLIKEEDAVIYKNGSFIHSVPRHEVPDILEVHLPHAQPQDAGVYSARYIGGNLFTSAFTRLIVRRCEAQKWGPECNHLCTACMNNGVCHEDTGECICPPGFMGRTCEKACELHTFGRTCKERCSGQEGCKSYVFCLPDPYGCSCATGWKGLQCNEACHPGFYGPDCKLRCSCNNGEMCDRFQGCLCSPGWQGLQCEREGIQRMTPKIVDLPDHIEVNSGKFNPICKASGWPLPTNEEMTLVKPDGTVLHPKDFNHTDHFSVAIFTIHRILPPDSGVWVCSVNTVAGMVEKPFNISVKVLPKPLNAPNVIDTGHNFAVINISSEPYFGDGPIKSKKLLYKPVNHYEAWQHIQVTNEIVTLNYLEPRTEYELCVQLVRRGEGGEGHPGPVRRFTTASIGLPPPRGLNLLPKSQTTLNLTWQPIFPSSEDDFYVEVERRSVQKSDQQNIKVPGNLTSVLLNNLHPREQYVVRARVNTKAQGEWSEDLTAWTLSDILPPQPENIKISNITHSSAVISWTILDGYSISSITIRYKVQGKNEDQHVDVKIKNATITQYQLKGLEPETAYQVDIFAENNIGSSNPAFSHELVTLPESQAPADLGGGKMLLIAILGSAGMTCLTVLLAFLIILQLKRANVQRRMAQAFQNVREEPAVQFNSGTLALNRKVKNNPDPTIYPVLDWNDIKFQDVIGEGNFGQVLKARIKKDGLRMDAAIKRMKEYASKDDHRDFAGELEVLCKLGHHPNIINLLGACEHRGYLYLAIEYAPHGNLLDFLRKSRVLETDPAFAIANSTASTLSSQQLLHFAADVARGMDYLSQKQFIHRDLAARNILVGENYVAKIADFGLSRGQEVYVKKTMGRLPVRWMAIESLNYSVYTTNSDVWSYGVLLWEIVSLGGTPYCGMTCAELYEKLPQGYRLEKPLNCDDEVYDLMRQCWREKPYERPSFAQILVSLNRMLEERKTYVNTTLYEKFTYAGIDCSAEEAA
pIC50: −log10 of the molar value.
measured_parameter: pIC50

[ask] Please list pIC50 recorded for the compound CC(C)(C)c1ccc(-c2noc(-c3cc(=O)c4cc(O)ccc4o3)n2)cc1
[reply] ≤ 5.00
